# Tested on: OVCAR4
# Method summary: Euclidean distance of Cell Painting phenotypic profile (signed KS, 77 features) to DMSO centroid (dimensionless distance); 5 or 10 uM (library dependent); higher = stronger phenotypic change vs DMSO (phenoactivity)
# Condition: 48 h
Counter-ions that a name gives are not always drawn.
Observable: Euclidean distance
Respond numerically, and do not add a unit to the figure.

Take a look at these entries with their results.
Nc1cccc2c1CN(C1CCC(=O)NC1=O)C2=O (stereo not drawn) [Lenalidomide (CC-5013)]
1.15
COc1cc(NS(=O)(=O)c2ccc(N)cc2)ncn1
1.12
CC(CN1c2ccccc2Sc2ccccc21)N(C)C (stereo not drawn) [Promethazine HCl]
1.1
COc1cc(OC)c(/C=C/S(=O)(=O)Cc2ccc(OC)c(NCC(=O)O)c2)c(OC)c1
2.72
Cc1onc(-c2c(F)cccc2Cl)c1C(=O)N[C@@H]1C(=O)N2[C@@H]1SC(C)(C)[C@@H]2C(=O)O [Flucloxacillin sodium]
1.72

*Q* Report Euclidean distance for Cc1ccccc1C(=O)Nc1ccc(C(=O)N2CCCC(N(C)C)c3ccccc32)cc1 (stereo not drawn)
*A* 0.913

*Q* Report Euclidean distance for COc1cccc(C=NCCN=Cc2cccc(OC)c2[O-])c1[O-].[Cl-].[Mn+3]
*A* 1.14

*Q* Report Euclidean distance for Nc1cccc(-c2cc3c(Oc4cccc(O)c4)ncnc3[nH]2)c1
*A* 3.29

*Q* Report Euclidean distance for N=C(N)Nc1ccc(C(=O)Oc2ccc3cc(C(=N)N)ccc3c2)cc1 [Nafamostat Mesylate]
*A* 1.24

*Q* Report Euclidean distance for CN1C(CCl)Nc2cc(Cl)c(S(N)(=O)=O)cc2S1(=O)=O (stereo not drawn) [Methyclothiazide]
*A* 1.52

*Q* Report Euclidean distance for CC(C)NNC(=O)c1ccncc1
*A* 1.18

*Q* Report Euclidean distance for COc1cnc(-n2cnc(C)n2)c2[nH]cc(C(=O)C(=O)N3CCN(C(=O)c4ccccc4)CC3)c12
*A* 0.969

*Q* Report Euclidean distance for C[C@]12CC[C@H](O)CC1=CC[C@@H]1[C@@H]2CC[C@]2(C)C(n3cnc4ccccc43)=CC[C@@H]12
*A* 1.04

*Q* Report Euclidean distance for CC(=O)NS(=O)(=O)c1ccc(N)cc1 [Sulfacetamide]
*A* 1.01

*Q* Report Euclidean distance for Cn1c(=O)c2[nH]c(Br)nc2n(C)c1=O
*A* 0.81

*Q* Report Euclidean distance for Cc1cc(C(C)Nc2ccccc2)c2nc(N3CCOCC3)cc(=O)n2c1 (stereo not drawn)
*A* 2.37

*Q* Report Euclidean distance for COc1cc(F)c(F)c(Nc2ccc(I)cc2F)c1NS(=O)(=O)C1(C[C@H](O)CO)CC1 [Refametinib (RDEA119. Bay 86-9766)]
*A* 2.27

*Q* Report Euclidean distance for CCS(=O)(=O)N1CC(CC#N)(n2cc(-c3ncnc4[nH]ccc34)cn2)C1
*A* 0.899

* * *

# Tested on: OVCAR4
# Method summary: Euclidean distance of Cell Painting phenotypic profile (signed KS, 77 features) to DMSO centroid (dimensionless distance); 5 or 10 uM (library dependent); higher = stronger phenotypic change vs DMSO (phenoactivity)
# Condition: 48 h
Short version: Euclidean distance at least 1 is fulfilled, less is not fulfilled.

Answered cases to consult:
CC(=C(CCOC(=O)C(C)C)SSC(CCOC(=O)C(C)C)=C(C)N(C=O)Cc1cnc(C)nc1N)N(C=O)Cc1cnc(C)nc1N (stereo in doubt)
fulfilled
CC[C@H](C)[C@H](NC(=O)[C@H]([C@@H](C)CC)N(C)C(C)=O)C(=O)N[C@H](C(=O)N[C@@H](CC(C)C)C(=O)[C@@]1(C)CO1)[C@@H](C)O
fulfilled

*Q* Given Nc1nc(CC(=O)Nc2ccc(CCNC[C@H](O)c3ccccc3)cc2)cs1 , state whether its Euclidean distance is at least 1.
*A* fulfilled

* * *

# System: FB
# Method summary: Euclidean distance of Cell Painting phenotypic profile (signed KS, 77 features) to DMSO centroid (dimensionless distance); 5 or 10 uM (library dependent); higher = stronger phenotypic change vs DMSO (phenoactivity)
# Condition: 48 h
The entries below come with measured Euclidean distance values attached.
Respond numerically, and do not add a unit to the figure.

Cc1cnc(-c2cc(N3CCN(C(=O)CCS(C)(=O)=O)CC3)ncc2Cl)c(C)c1
1.23
C=C1CCN([C@H](C)[C@](O)(Cn2cncn2)c2ccc(F)cc2F)CC1
0.84
COC(=O)N/N=C/c1c[n+]([O-])c2ccccc2[n+]1[O-]
1.23
Cc1ccc(C(=O)Nc2cccc(C(F)(F)F)c2)cc1Nc1nc(-c2cccnc2)nc2c1cnn2C
1.82

Could you now look at the following compound, please?
*Q* Report Euclidean distance for C[C@@H]1O[C@@H]1P(=O)(O)O [Fosfomycin Disodium]
*A* 0.793

* * *

The entries below come with measured Euclidean distance values attached.
# Test system: OVCAR4
# Method summary: Euclidean distance of Cell Painting phenotypic profile (signed KS, 77 features) to DMSO centroid (dimensionless distance); 5 or 10 uM (library dependent); higher = stronger phenotypic change vs DMSO (phenoactivity)
# Condition: 48 h
Where a name gives a salt, the structure may show the parent alone.
Respond numerically, and do not add a unit to the figure.

CC(C)CCNC(=O)[C@H](CC(C)C)NC(=O)[C@H]1O[C@@H]1C(=O)O [Loxistatin Acid (E-64C)]
1.5
Cc1cc(N2CCOCC2)ccc1Nc1nc(NC2CCCCC2)c2[nH]cnc2n1
1.73
COCCc1ccc(OCC(O)CNC(C)C)cc1 (centres undefined) [Metroprolol succinate]
1.9

*Q* Report Euclidean distance for CN(C)c1cccc(-c2c3c(=O)n(-c4ccccc4Cl)[nH]c3cc(=O)n2C)c1
*A* 1.39

*Q* Report Euclidean distance for C[C@@H](Nc1cc(F)cc(F)c1)c1cc(C(=O)N(C)C)cc2c(=O)cc(N3CCOCC3)oc12
*A* 2.9

*Q* Report Euclidean distance for CCOC(=O)[C@H](CCc1ccccc1)N[C@H]1CS[C@H](c2cccs2)CN(CC(=O)O)C1=O [Temocapril HCl]
*A* 0.878

*Q* Report Euclidean distance for Cc1cc2c(F)c(Oc3ncnn4cc(OC[C@@H](C)O)c(C)c34)ccc2[nH]1
*A* 1.6

*Q* Report Euclidean distance for COc1ccc(C(Cl)=C(c2ccc(OC)cc2)c2ccc(OC)cc2)cc1
*A* 1.04

*Q* Report Euclidean distance for CN(C)CCCN1c2ccccc2CCc2ccc(Cl)cc21 [Clomipramine HCl]
*A* 1.77

* * *

The entries below come with measured Euclidean distance values attached.
# Tested on: FB
# Method summary: Euclidean distance of Cell Painting phenotypic profile (signed KS, 77 features) to DMSO centroid (dimensionless distance); 5 or 10 uM (library dependent); higher = stronger phenotypic change vs DMSO (phenoactivity)
# Condition: 48 h
Structures can show the parent of a compound that is named as a salt.
Respond numerically, and do not add a unit to the figure.

Take a look at these entries with their results.
N=C(N)NC(=N)N1CCOCC1 [Moroxydine HCl]
0.666
CC1(C)O[C@@H]2C[C@H]3[C@@H]4C[C@H](F)C5=CC(=O)C=C[C@]5(C)[C@@]4(F)[C@@H](O)C[C@]3(C)[C@]2(C(=O)CO)O1 [Fluocinolone Acetonide]
2.02

*Q* Report Euclidean distance for COc1cc(F)c(C(C)C)cc1-c1ccc(C(F)(F)F)cc1CN1C(=O)O[C@H](c2cc(C(F)(F)F)cc(C(F)(F)F)c2)[C@@H]1C
*A* 0.869

*Q* Report Euclidean distance for CO[C@H]1C[C@@H]2CC[C@@H](C)[C@@](O)(O2)C(=O)C(=O)N2CCCC[C@H]2C(=O)O[C@H]([C@H](C)C[C@@H]2CC[C@H](n3cnnn3)[C@H](OC)C2)CC(=O)[C@H](C)/C=C(\C)[C@@H](O)[C@@H](OC)C(=O)[C@H](C)C[C@H](C)/C=C/C=C/C=C/1C
*A* 2.7

*Q* Report Euclidean distance for CCCCCCCCCCCCc1ccc(S(=O)(=O)Nc2nncs2)cc1
*A* 1.16

*Q* Report Euclidean distance for CC(=O)[C@@]1(O)CC[C@H]2[C@@H]3C[C@H](C)C4=CC(=O)C=C[C@]4(C)[C@@]3(F)[C@@H](O)C[C@@]21C
*A* 1.73

*Q* Report Euclidean distance for CCN(CC)CCCC(C)Nc1c2ccc(Cl)cc2nc2ccc(OC)cc12 (centres undefined) [Quinacrine 2HCl]
*A* 5.56

*Q* Report Euclidean distance for COc1ccc2cc1Oc1ccc(cc1)C[C@H]1c3c(cc4c(c3Oc3cc5c(cc3OC)CCN(C)[C@@H]5C2)OCO4)CCN1C
*A* 4.8

*Q* Report Euclidean distance for O=C(O)/C=C/c1ccc(Cn2ccnc2)cc1 [Ozagrel sodium]
*A* 1.07

*Q* Report Euclidean distance for CCOC(=O)C1=C(C)NC(C)=C(C(=O)OC)C1c1cccc([N+](=O)[O-])c1 (centres undefined)
*A* 1.33

*Q* Report Euclidean distance for COC(=O)Nc1nc2cc(C(=O)c3cccs3)ccc2[nH]1
*A* 2.56

*Q* Report Euclidean distance for CC(C)(C)[N+]([O-])=Cc1ccc(S(=O)(=O)O)cc1S(=O)(=O)O
*A* 1.52

*Q* Report Euclidean distance for Cc1cc(O)c(C(=O)N[C@@H](C(=O)N[C@@H]2C(=O)N3C(C(=O)O)=C(CSc4nnnn4C)CS[C@H]23)c2ccc(O)cc2)cn1 [Cefpiramide sodium]
*A* 1.17

*Q* Report Euclidean distance for COc1ccc2c(Oc3ccc(NC(=O)c4c(C)n(CC(C)(C)O)n(-c5ccccc5)c4=O)nc3)ccnc2c1
*A* 3.08
